Reported values of polymerase ribozyme fitness (log ratio) for individual entries
B1: TPR t1 (parent)
chain: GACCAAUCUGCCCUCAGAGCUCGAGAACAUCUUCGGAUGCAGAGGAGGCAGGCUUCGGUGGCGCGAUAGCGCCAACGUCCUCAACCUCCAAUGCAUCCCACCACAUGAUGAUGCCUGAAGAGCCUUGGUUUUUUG

variants of: B1; test: polymerase ribozyme fitness, log enrichment relative to wild type (log ratio); higher = more active; in vitro selection for triplet polymerase activity
ENDPOINT LABEL: polymerase ribozyme fitness (log ratio)

SEQUENCE CONTENT	ENDPOINT LABEL	QUANTITATIVE RESULT
GACCAUUCUGCCCUCAGAGCUCGAGAACAUCUUCGGAUGCAGAGGAGGCAGGCUUCGGUGGUGCGAUAGCGCCAACGUCCUCAACCUCCAAUGCAUCCCACCACAUGAUGAGGCAUGAAGAGCCUUGGUUCUUUC	polymerase ribozyme fitness (log ratio)	-1.02
GACCAAUCUGCCCUCAGAGCUCGAGAACAUCUUCGUAUGCAGAGGAGGCAGGCUUCGGUGGCGCGAUAGCACCAACGUCCUCAACCUCCAAUGCAUCCCACCACAUGAUGAUGCCUGAACAGGCUUGGUUUUUUG	polymerase ribozyme fitness (log ratio)	-1
GACCAAUCUGCCCUCAGAGCUCGAGAACAUCUUGGGAUGCAGAGGAGGCAGGCUUCGGUGGCUCGAUAGCGCCAACGUCCUCAACCUCCAAUGCAUCCCACCACAUGAUGAUGCCUGAAGAGCCUUGGUUUUUUG	polymerase ribozyme fitness (log ratio)	-8.24
GACCAAUCUGCCCUCAGAGCUCGAGAACAUCUUCGGAUGCAGAGGAUGCAGGCUUCGGUGGCGCGAUAGCGCCAACGUCCACAACCUCCAAUGCAUCCCACCACAUGAUGAUGCCUGAAGAUUCUUGGUCAUUUG	polymerase ribozyme fitness (log ratio)	-2.99
GACCAAUCUGCCCUCAGAGCUCGAGAACAUCUUCGGAUGCAGAGGAGCAAGGCUCCGGUGACGCGAUAGCGCCAACGUCCUCAACCUCCAAUGCGUCCCACCACAUGAUAAUGCCUGAAGAGCCUUGGUUUUUUG	polymerase ribozyme fitness (log ratio)	-2.85
GACCAAUCGGCCCUCAGAGCUCGAGAACAUCUUCGGAUGCAGAGGAGGCAGGCUUUGGUGGCGCGAUAGCGCCAACGUCCUCAACCUCCAAUGCAUCCCACCACAUGAUGAUGCCUGAAGAGCCUUGGUUUUUUG	polymerase ribozyme fitness (log ratio)	-0.823
GACCAAUCUGCCCUCAGAGCUCGAGAACAUCUUCGGAUGCAGAGGAGGCAGGCUUCGGUGGCGCGAUAGCGCCAACGUCCUCAACCUCCAAUGCAUCCCACCACAUGAUGAUGCUUGAAGAGCCUUGGGUUUUUG	polymerase ribozyme fitness (log ratio)	-2.15
GACCAAUCUGCCCUCAGAGCUCGAGAACAUCUUCGGAUGAAGAGGAGGCAGGCUUCGGUGGCGCGAUAGCGCCAACGUCCUCAACCUACAAUGCAUCCCACCACAUGAUGAUGCCUAAAGAGCCUUGGUUUUUUG	polymerase ribozyme fitness (log ratio)	-3.85
GACCAAUCUGCCCUCAGAGCUCGAGAACAUCUUCGGAUGCAGAGGAGGCAGGCUUCGGUGGCGCGAUAGUGCCAACGUCCUCAACCUACAAUGCAUCCCACCACAUGAUGAUGCCUGAGGAGCCUUGGUUAUUUG	polymerase ribozyme fitness (log ratio)	1.21
GACCAAUCUGCCCUCAGAGCUCGAGAACAUCUUCGGAUGCAGAGGAGGCAGGCUUCGGUGGCGCGAUAGCGCCAACGUCUUCAACCUCCAAUGCAUCUCACCACAUGAUGAUGCCUGAAGAGCCUUGGUUUUUUG	polymerase ribozyme fitness (log ratio)	-1.69
GACCAAUCUGCGCUCAGAGCUCGAGAAUAUCUUCGGAUGCAGAGGAGGCAGGCUUCGGUGGCGCGCUAGCGUCAACGUCCUCACCCUCCAAUGCAUCCCACCACAUGAUGAUGCCUGAAGAGCCUUGGUUUUUUG	polymerase ribozyme fitness (log ratio)	-3.81
GACCAGUCUGCUCUCAGAGCUCGAGAACAUCUUCGGAUGCAGAGGAGGCAGGCUUCGGUGGCGCGAUACCGCCAACGUCCUCAACCUCCAAUGCAUCCCACCACAUGAUGACGCCUGAAGAGACUUGGUUAUUUG	polymerase ribozyme fitness (log ratio)	0.491
GACCAAUCUGCCCUCAGAGCUCGAGAACAUCUUCGGAUGCAGAGGAGGCAGGCUUUGGUGGCGCGAUAGCACCAACGUCCUCAACCUCCAAUGCAUCCCACCACAUGAUGAUGCCUGAAGAGCCUUGGUUUUUUG	polymerase ribozyme fitness (log ratio)	-2.84
GACCAAUCUGCCCUCAGAGCUCGAGAACAUCUUCGGAUGCAGAGGAGGCAGGCUUCGGUGGCGCGAUAGCGACAACGUCCUCAACCUCCAAUGCAUCCCACCACAUGAAGAUGCCUGAAGAGUCUUGGUUUUUUG	polymerase ribozyme fitness (log ratio)	-6.2
GACCAAUCUGCCCUCAGAGCUCGAGAACAUCUUCGGAUGCAGAGGAGGCAGGCUUCGGUGGCGCGAUAUCACCAUCGUCCUCAACCUCCAAUGCAUCCCACCUCAUGAUGAUGCCUGAAGAGCGUUGGUUUUUUG	polymerase ribozyme fitness (log ratio)	-3.98
GACCAAUCUGCCCUAAGAGCUCGAGAACAUCUACGGAUGCACAGGAGGCAGGCUUCGGUGGCGCGAUAGCGCCAACGCUCUCAACCUCCAAUGCAUCCCACCACAUGAUGGUGCCUGAAGAGCCUUGGUUUUUUG	polymerase ribozyme fitness (log ratio)	-6.15
GACCAAUCUGCCCUCAGAGCGCGAGAACAUCUUCGGAUGCAGAGGAGGCAGGCUUCGGUGGCGCGAUAGCGCCAACGUCCUCAACCUCCAAUGCAUCCCACCACAUGAUGAUGCCUAAAGAGCCUUGGUUUUUUG	polymerase ribozyme fitness (log ratio)	-2.55
GACCAAUCUGCCCUCAGAGCUCGAGAACAUCUUCGGAUGCAGAGGAGGCAGGCUUCGGUGGCGCGAUAGCGCCAACGUCCUCAACCUCCAAUGCAUCCCACCACAUGAUGAUGCCUGAAGAGGCUUGGUGUUUUG	polymerase ribozyme fitness (log ratio)	1.48
GACCAAUCUGCCCUCGGAGCUCGAGAACAUCUUCGGAUGCAGAGGAGGCAGGCUUCGGUGGCGCGAUAGCGCCAACGUCCUCAACCUCCAAUACAUCCCACCACAUGAUGAUGCCUGAAAAUCCUUGGUGUUUUG	polymerase ribozyme fitness (log ratio)	-3.58
GACCAAUCUGCCCUCAGAGCUCGAGAACAUCUUCGGAUGCGGAGGAGGCAGGCUUCGGUGGCGCGAUAGCGCCAACGUGCUCAACCUCCAAUGCAUCCCACCACAUGAUGAUGACUGAAGAGCCUUGGUUUUUUG	polymerase ribozyme fitness (log ratio)	-5.3
GACCAAUCUGCCCUCAGAGCUCGAGAACAUCUUCGGAUGAAGAGGAGGCAGGCUUCGGUGGCGCGAUAGCGCCGACGUCCUCAACCUCCAAUGCAUCCCACCACAUGAUGAUGCCUGAAGAGCCUUGGUCUUUUG	polymerase ribozyme fitness (log ratio)	-0.804
GACCAAUCUGCCCUGAGAGCUCGAGAACAUCUUCGGAUGCAGAGGAGGCAGGCUUCGGUGGCGCGAUAGCGCCAACGUCCUCUACCUCCAAUGCAUCCCACCACAUGAUGAUGCGUGAAGAGACUUGGUUUUUUG	polymerase ribozyme fitness (log ratio)	-5.38
GACCAAUCUGCCCUCAGAGCUCGAGAACAUCUUCGGAUGCAGAGGAGGCAGGCUUCGGUUGCGCGAUAGCGCCAAUGUCCUCAACCUCCAAUGCAUCCCACCACAUGAUGAUGCCUGAAGAGCCUUGGUUUUUUG	polymerase ribozyme fitness (log ratio)	-2.74
GACCAAUCUGCCCUCAGAGCUCGAGAACAUCUUCGGAUGCAGAGGAGGCAGGCUUCGGUGGCGCGAUAGCGCCAACGUCCUCAACCUCCAAUGCAUCCCACCACAAGAUGAUGCCUGAAGAGCCUUGGUUUAUUG	polymerase ribozyme fitness (log ratio)	-0.65
GACCAAUCUGCCCUCAGAGCUCGAGAACAUCUUCGGAUGCAGAGGAGGCAGGCUUCGGUGGCGCGAUAGCGCCAACGUCCUCAACCUCCAAUGCAUCCCAUCACAUGAUGAUGGCUGAAGAGCCUUGGUUUUUUG	polymerase ribozyme fitness (log ratio)	-3.89
GACCAAUCUGCUCUCAGAGCUCGAGAACGUCUUCGGAUGCAGAGGAGGCAGGCUUCGGUGGCGCGAUAGCGCGAACGUCCUCAACCUCCAACGAAUCCCACCACAUGAUGAUGCCUGAAGAGCCUUGGUUUUUUG	polymerase ribozyme fitness (log ratio)	-5.22
GACCAAUCGGCCCUCAGAGAUCGAGAACAUCUUCGGAUGCAGAGGAGGCAGGCUUCGGUGGCGCGAUAGCGCCAACGUCCUCAACCUCCAAUGCAUCCCACCACAUGAUGAUGCCUGAAGAGCCUUGGUUUUUUG	polymerase ribozyme fitness (log ratio)	-2.5
GACCAAUCUGCCCUCAGAGCUCGAGAACAUCUUUGGAUGCAGAGGAGGCAGACUUCGGUGGGGCGAUAGCGCCAACGUCCUCAACCUCCAAUGCAUCCCACCACAUGAUGAUGCCUGAGGAGUCUUGGUUUUUUC	polymerase ribozyme fitness (log ratio)	-5.87
GACCAAUCUGCCCUCAGAGCUCGAGAACCUCUUCGGAUGCAGAGGAGGCAGGCUUCGGUGGAGCGAUAGCGCCAACGUCCUCAACCUCCAAUGCAUCCCACCACAUGAUGAUGCCUGAAGAGCGUUGGCUUUUUG	polymerase ribozyme fitness (log ratio)	-3.09
GACCAAUCUGCCCUCAGAGCUCGAGAACAUCUUCGGAUGCAGAGGAGGCAGGCUUCGGUGGCGCGAUAGCGCCAACGUCCUCAACCUCCAAUGCAUCCCAGCACAUGAUGAUGUCUGAAGAGCCUUGGUUUUUUG	polymerase ribozyme fitness (log ratio)	-3.32
GACCAAUCUGCCCUCAGAGCUCGAGAACAUCUUCGGAUGCAGAGGAGCCAGGCUUCGGUGGCGCGAUAGCGCCAACGUCCUCAACCUCCAAUGCAUCCCACCACAUGAUGAUGCCGGAAGAGCCUUGGUUUUUUG	polymerase ribozyme fitness (log ratio)	-3.09
GACCAAUCUGCCCUCAGAGCUCGAGAACAUCUUCGGAUGCAGAGGAGGCAGGCUUCGGUAGCGCGAUAGCGCCAACGUCCUCAACCUCCAAUACAUCCCACCACAUGAUGAUGCCUGAAGAGCCUUGGUUUUUUG	polymerase ribozyme fitness (log ratio)	0.0256
GACCAAUCUGCCCUCAGAGCUCGAGAACAUCUUCGGAUGCAGAGAAGGCAGGCUUCGGUGGCGCGAUAGCGUCAACGUCCUCAACCUCCAAUGCAUCCCACCACAUGAUCAUGCCUGAAGAGCCUUGGUUUUUUG	polymerase ribozyme fitness (log ratio)	-4.39
GACCAAUCUGCCCUCAGAGCUCGAGAACAUCUUCGGAUGCAUAGGAGGCAGGCUUCGGUGGUGCGAUAGCGCCAACGUCCUCAACCUCCAAUGCAUCCCACCACAUGAUGAUGCCUGAAGAGCCUUGGUUUUUUG	polymerase ribozyme fitness (log ratio)	-1.69
GACCAAUCUGCCCUCAGAGCUCGAGAACAUCUUCGGAUGCAGAGAAGGCAGGGUUCGGUGGCGCGAUAGCGCCAACGUCCUCAACCUCCAAUGCAUCCCACCACAUGAUGAUGCCUGAAGAGCCUUGGUUUUUUG	polymerase ribozyme fitness (log ratio)	-0.662
GACCAAUCUGCCCUCAGAGCUCGAGAACAUCUUCGGUUGCAGAGGAGACAGGCUUCGGUGGCGCGAUAGCGCCAACGUCCUCAACCUCCAAUGCAUUCCACCACAUGAUUAUGCCUGAAGAGCCCUGGUUUUUUG	polymerase ribozyme fitness (log ratio)	-6.59
GACCAAUCUGCCCUCAGAACUCGAGAACAUCUUCGGAUGCAGAGGAGGCUGGCUUCGGUGGCGCGAUAGCGCCAACGUCCUCAACCUCCAAUGCAUCCCACCACAUGAUGAUCCCUGAAGAGCCUUGGUUUUUUG	polymerase ribozyme fitness (log ratio)	-2.01
